mortality at 0.05 µg/cm2 values by entry
Test system: Beet Armyworm (BAW)
Test: Bioassays on BAW, 128-well diet tray assay
Assay type: in vivo
Conditions: Spodoptera exigua; 0.05 μg/cm^2; read-out: BAW Percent control (or mortality)

Record excerpt, results attached:
C[C@H](NC(=O)CCC(F)(F)F)NC(=O)c1ccc(/C=C/C(c2cc(Cl)c(Cl)c(Cl)c2)C(F)(F)F)cc1 (some centres unmarked) | 0%
C[C@H](NC(=O)CC(F)(F)F)NC(=O)c1ccc(/C=C/C(c2cc(Cl)c(Cl)c(Cl)c2)C(F)(F)F)cc1 (some centres unmarked) | 0%
C[C@H](NC(=O)CC(F)(F)F)NC(=O)c1ccc(/C=C/C(c2cc(Cl)c(Cl)c(Cl)c2)C(F)(F)F)cc1Br (some centres unmarked) | 0%
Cc1cc(/C=C/C(c2cc(Cl)c(Cl)c(Cl)c2)C(F)(F)F)ccc1C(=O)N[C@H](C)NC(=O)CC(F)(F)F (some centres unmarked) | 25%
C[C@H](NC(=O)CCC(F)(F)F)NC(=O)c1ccc(/C=C/C(c2cc(Cl)c(Cl)c(Cl)c2)C(F)(F)F)cc1Br (some centres unmarked) | 0%

I would be grateful if you could share the reported mortality at 0.05 µg/cm2 for Cc1cc(/C=C/C(c2cc(Cl)c(Cl)c(Cl)c2)C(F)(F)F)ccc1C(=O)N[C@H](C)NC(=O)CCC(F)(F)F (some centres unmarked) .
100%

Record: C[C@H](NC(=O)CC(F)(F)F)NC(=O)c1ccc(/C=C/C(c2cc(Cl)c(Cl)c(Cl)c2)C(F)(F)F)cc1C(F)(F)F (some centres unmarked)
100%

Record: C[C@H](NC(=O)CCC(F)(F)F)NC(=O)c1ccc(/C=C/C(c2cc(Cl)c(Cl)c(Cl)c2)C(F)(F)F)cc1C(F)(F)F (some centres unmarked)
100%
